- system: Vasoactive intestinal polypeptide receptor 2 (Homo sapiens) (UniProt P41587)
- Sequence (P41587 whole entry): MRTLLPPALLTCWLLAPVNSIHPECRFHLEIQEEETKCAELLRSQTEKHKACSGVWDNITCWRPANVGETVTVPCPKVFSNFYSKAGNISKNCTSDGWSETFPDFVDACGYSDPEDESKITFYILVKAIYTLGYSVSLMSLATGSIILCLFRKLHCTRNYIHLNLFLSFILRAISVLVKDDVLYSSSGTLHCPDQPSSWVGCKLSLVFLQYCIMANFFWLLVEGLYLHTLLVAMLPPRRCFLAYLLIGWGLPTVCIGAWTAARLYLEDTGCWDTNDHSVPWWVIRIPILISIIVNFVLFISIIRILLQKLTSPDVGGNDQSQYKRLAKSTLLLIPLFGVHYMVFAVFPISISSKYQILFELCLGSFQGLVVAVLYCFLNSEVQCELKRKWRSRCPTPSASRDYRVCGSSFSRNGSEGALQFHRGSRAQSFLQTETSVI
- experimentNotes: Antagonist activity at recombinant human N-terminal signal peptide/FLAG epitope-tagged VIPR2 expressed in HEK293 cells co-expressing CAMYEL assessed as inhibition of VIP-induced cAMP accumulation at 0.5 uM preincubated for 5 mins with luciferin, coelenterazine H followed by VIP addition measured after 5 mins by BRET assay relative to control
- Assay type: functional, cell-based
endpointName: inhibition (%)
Give the number; % is assumed, so skip it.

Task: Record lookup: for Vasoactive intestinal polypeptide receptor 2 (Homo sapiens) (UniProt P41587), what inhibition belongs to `CO[C@@H]1Cc2ccccc2[C@@H]1NC(=O)[C@H](Cc1ccccc1)C[C@H](O)CNS(=O)(=O)c1ccc([N+](=O)[O-])cc1` ?
Output: 15.7

Task: Ok, now `CC(C)c1cc(C(C)C)c(S(=O)(=O)NC[C@@H](O)C[C@@H](Cc2ccccc2)C(=O)N[C@H]2c3ccccc3C[C@H]2O)c(C(C)C)c1`
Output: 19.5

Task: Ok, now `O=C(O)c1ccc(S(=O)(=O)NC[C@@H](O)C[C@@H](Cc2ccccc2)C(=O)N[C@H]2c3ccccc3C[C@H]2O)cc1`
Output: 7.4

Task: Ok, now `O=C(NC[C@@H](O)C[C@@H](Cc1ccccc1)C(=O)N[C@H]1c2ccccc2C[C@H]1O)c1cccc(Br)c1`
Output: 17.4

Task: Ok, now `O=C(NCc1ccccc1)[C@H](Cc1ccccc1)C[C@H](O)CNS(=O)(=O)c1ccc([N+](=O)[O-])cc1`
Output: -1.1

Task: Ok, now `O=C([C@H](Cc1ccccc1)C[C@H](O)CNS(=O)(=O)c1ccc([N+](=O)[O-])cc1)N1CCC(CO)CC1`
Output: 2.1

Task: Ok, now `O=C(NC[C@@H](O)C[C@@H](Cc1ccccc1)C(=O)N[C@H]1c2ccccc2C[C@H]1O)c1c(Cl)cc(Cl)cc1Cl`
Output: 17.6

Task: Ok, now `CC(=O)Nc1ccc(S(=O)(=O)NC[C@@H](O)C[C@@H](Cc2ccccc2)C(=O)N[C@H]2c3ccccc3C[C@H]2O)cc1`
Output: 15.2

Task: Ok, now `CCCCNC(=O)c1ccc(S(=O)(=O)NC[C@@H](O)C[C@@H](Cc2ccccc2)C(=O)N[C@H]2c3ccccc3C[C@H]2O)cc1`
Output: -0.4

Task: Ok, now `O=C(NC[C@@H](O)C[C@@H](Cc1ccccc1)C(=O)N[C@H]1c2ccccc2C[C@H]1O)c1ccncc1`
Output: 14.2

Task: Ok, now `O=C(Nc1ccc(S(=O)(=O)NC[C@@H](O)C[C@@H](Cc2ccccc2)C(=O)N[C@H]2c3ccccc3C[C@H]2O)cc1)C1CC1`
Output: -2.4

Task: Ok, now O=C(NC1CCCc2ccccc21)[C@H](Cc1ccccc1)C[C@H](O)CNS(=O)(=O)c1ccc([N+](=O)[O-])cc1 (stereo not given in full)
Output: 8.8

Task: Ok, now `O=C(NCc1ccc(F)cc1F)[C@H](Cc1ccccc1)C[C@H](O)CNS(=O)(=O)c1ccc([N+](=O)[O-])cc1`
Output: 2.4

Task: Ok, now `O=C(NC[C@@H](O)C[C@@H](Cc1ccccc1)C(=O)N[C@H]1c2ccccc2C[C@H]1O)c1cccnc1`
Output: 15.2

Task: Ok, now `O=C(NCc1ccc(F)cc1F)[C@@H](Cc1ccccc1)C[C@H](O)CNS(=O)(=O)c1ccc([N+](=O)[O-])cc1`
Output: -5.4
